Origin of values: patent US20220096516A1

tested on: LHPP gene; assay: High-throughput screening of saRNAs targeting LHPP promoter: LHPP mRNA by one-step RT-qPCR in Huh7 cells; type: cell-based, human; details: 10 nM saRNA, 72 hours, relative to control (Mock)
d = 2'-deoxy (DNA); r = 2'-OH (RNA)
So I've got a bunch of substances here, and I need their Fold of changes in relative LHPP mRNA expression level values.

## Input Entry RAG7-177: saRNA duplex; sense AUUUGCCUUUGACCUUUCUTT (SEQ ID NO: 6), antisense AGAAAGGUCAAAGGCAAAUTT (SEQ ID NO: 170) (sugars from the 5' end r19 d2, backbone not given here) has what Fold of changes in relative LHPP mRNA expression level?
## Output 1.74 fold

## Input Now consider RAG7-160: saRNA duplex; sense CUUAGGGACUUGUUUUCUGTT (SEQ ID NO: 153), antisense CAGAAAACAAGUCCCUAAGTT (SEQ ID NO: 317) (sugars from the 5' end r19 d2, backbone not given here) .
## Output 1.11 fold

## Input Now consider RAG7-692: saRNA duplex; sense GUCCUAUGCAUCCUCAUCUTT (SEQ ID NO: 124), antisense AGAUGAGGAUGCAUAGGACTT (SEQ ID NO: 288) (sugars from the 5' end r19 d2, backbone not given here) .
## Output 1.17 fold

## Input Now consider RAG7-745: saRNA duplex; sense AAAACCUCCUGGGUUUAACTT (SEQ ID NO: 154), antisense GUUAAACCCAGGAGGUUUUTT (SEQ ID NO: 318) (sugars from the 5' end r19 d2, backbone not given here) .
## Output 1.11 fold
